These measurements were taken from patent US20230357099A1.

Tested on: ABIL (ammonia-binding liquid inoculum), nitrifying microbial enrichment containing both AOA and AOB
Test description: Nitrification inhibition assay on ABIL (ammonium consumption)
Type: cell-based
Experimental setup: 10 µM compound; structural variants outside formula (I); read-out: Relative nitrification (%) by ABIL treated with 10 µM compound
The reader will find reported activity at 10 µM values listed item by item below.
Entry rule: numbers only, all in %.

# Compound, activity at 10 µM, %
records = [
    ("Cc1nnc(NC(=O)c2cnc3c(cnn3C(C)C)c2)s1", 100),
    ("N#Cc1nn(CN2CCSCC2)c2ccc(Cl)cc12", 85),
    ("Cc1nc2c(c(C)nn2C)c(C)c1CCC(=O)N1CCOCC1", 100),
    ("O=S(=O)(Nc1n[nH]c2ccccc12)c1ccccc1C(F)(F)F", 100),
    ("CC(C)n1ncc2cc(CNc3ccc4[nH]ncc4c3)cnc21", 92),
]

Report activity at 10 µM for Cc1nc2c(c(C)nn2C)c(C)c1CCC(=O)NCC1CCCO1 (stereo not shown) please.
100

Report activity at 10 µM for "Cc1cccc(C)c1OCC(=O)Nc1cnc2c(cnn2C(C)C)c1" please.
100

====

The reader will find reported activity at 10 µM values listed item by item below.
System: ABIL (ammonia-binding liquid inoculum), nitrifying microbial enrichment containing both AOA and AOB
Test description: Nitrification inhibition assay on ABIL (ammonium consumption)
Format: cell-based
Experimental setup: 10 µM compound; structural variants outside formula (I); read-out: Relative nitrification (%) by ABIL treated with 10 µM compound
Entry rule: numbers only, all in %.

Example results:
# Compound, activity at 10 µM, %
data = [
    ("O=S(=O)(Nc1ccc2cn[nH]c2c1)c1cccc2ccccc12 [Example 161]", 100),
    ("Cc1nc2c(cnn2C(C)C)cc1C(=O)NC(C)c1ccccc1Br (stereo not shown) [Example 62]", 100),
    ("CNS(=O)(=O)c1cccc(C(=O)Nc2cnc3c(c2)c(C)nn3C)c1 [Example 43]", 98),
    ("CC(C)n1ncc2cc(NC(=O)CCS(=O)(=O)c3ccc(Cl)cc3)cnc21 [Example 28]", 92),
    ("CCN(CC1CCOC1)C(=O)c1cnc2c(cnn2C(C)C)c1 (stereo not shown) [Example 29]", 92),
    ("CCC(CC)CN(CC)C(=O)c1cnc2c(c1)c(C)nn2C [Example 54]", 100),
    ("CC(C)n1ncc2cc(CN(C)C3CCSC3)cnc21 (stereo not shown) [Example 38]", 97),
    ("CC(C)n1ncc2ccc(NC(=O)NC3CCN(C)C3=O)cc21 (stereo not shown) [Example 140]", 100),
]

Report activity at 10 µM for Cc1nc2c(c(C)nn2C)c(C)c1CCC(=O)NCCc1ccc2c(c1)OCO2 [Example 47] please.
100

Report activity at 10 µM for O=C(NCCc1ccccc1)c1n[nH]c2ccccc12 [Example 98] please.
89

Report activity at 10 µM for FC(F)(F)c1c[nH]c(C2CCN(Cc3cccc4cn[nH]c34)CC2)n1 [Example 158] please.
100

Report activity at 10 µM for O=S(=O)(Nc1cccc2[nH]ncc12)N1CCCCC1 [Example 113] please.
98

Report activity at 10 µM for CC(Oc1ccc(Br)cc1)C(=O)Nc1cnc2c(cnn2C(C)C)c1 (stereo not shown) [Example 22] please.
90
